The origin of these recorded values is paper PMC6928678.

- Test system: gram-negative strains tested
- protocol notes: Geometric mean of MICs, gram-negative strains
- Format: cell-based
- measurement parameters: 5 gram-negative strains; >128 apparently counted as 256; read-out: nGM (–), geometric mean of the MICs against gram-negative strains
- Protocol: Briefly, the bacteria were incubated overnight at 37 °C with constant shaking at 220 rpm, then were transferred to new MH broth (MHB) medium until they reached the logarithmic phase of growth. The bacteria were then diluted to 10^5 (CFU)/mL in MHB. The peptides were dissolved and diluted in 0.01% acetic acid and 0.2% bovine serum albumin (BSA) at various concentrations (0.5–128 μM) in each well of sterile 96-well plates and incubated for 20 h at 37 °C. […] The test was repeated three times.
Where a SMILES comes first, the peptide text is derived from it. [ ]: non-standard residue; d: D form. Orn = NCCC[C@H](N)C(=O)O
MIC vs 200 µM: less than gives t; not less than gives f.

CC(C)C[C@@H]1NC(=O)[C@H](CCCN)NC(=O)[C@H](C(C)C)NC(=O)[C@@H]2CCCN2C(=O)[C@@H](Cc2ccccc2)NC(=O)[C@H](CC(C)C)NC(=O)[C@H](CCCN)NC(=O)[C@H](C(C)C)NC(=O)[C@@H]2CCCN2C(=O)[C@@H](Cc2ccccc2)NC1=O [GS, gramicidin S, reference compound] (cyclo(V[Orn]L[dF]PV[Orn]L[dF]P)): t

Data request: Would you kindly verify if MIC of CC[C@H](C)[C@H](N)C(=O)N[C@@H](CCCNC(=N)N)C(=O)N1CCC[C@@H]1C(=O)N[C@H](C(=O)N[C@@H](CCCNC(=N)N)C(=O)N1CCC[C@@H]1C(=O)O)[C@@H](C)CC [DIR1] (H-IR[dP]IR[dP]-OH) is strictly less than 200 µM?
Data returned: f

Data request: Would you kindly verify if MIC of CC[C@H](C)[C@@H]1NC(=O)[C@H](CCCNC(=N)N)NC(=O)[C@H]([C@@H](C)CC)NC(=O)[C@@H]2CCCN2C(=O)[C@H](CCCNC(=N)N)NC(=O)[C@H]([C@@H](C)CC)NC(=O)[C@H](CCCNC(=N)N)NC(=O)[C@H]([C@@H](C)CC)NC(=O)[C@H](CCCNC(=N)N)NC(=O)[C@H]([C@@H](C)CC)NC(=O)[C@@H]2CCCN2C(=O)[C@H](CCCNC(=N)N)NC(=O)[C@H]([C@@H](C)CC)NC(=O)[C@H](CCCNC(=N)N)NC1=O [OIR3] (cyclo(IRIRIRPIRIRIRP)) is strictly less than 200 µM?
Data returned: t

Data request: Would you kindly verify if MIC of O=C(N[C@H](CO)[C@H](O)c1ccc([N+](=O)[O-])cc1)C(Cl)Cl [CH, Chloramphenicol, reference compound] is strictly less than 200 µM?
Data returned: t

---

Here the recorded GM MIC (range of Gram-negative and Gram-positive geometric means) is given for each entry.
- Tested on: all the 9 bacteria tested
- protocol notes: Geometric mean of MICs, all 9 bacteria
- Assay type: cell-based
- measurement parameters: Table 2
- Protocol: Briefly, the bacteria were incubated overnight at 37 °C with constant shaking at 220 rpm, then were transferred to new MH broth (MHB) medium until they reached the logarithmic phase of growth. The bacteria were then diluted to 10^5 (CFU)/mL in MHB. The peptides were dissolved and diluted in 0.01% acetic acid and 0.2% bovine serum albumin (BSA) at various concentrations (0.5–128 μM) in each well of sterile 96-well plates and incubated for 20 h at 37 °C. […] The test was repeated three times.
Where a SMILES comes first, the peptide text is derived from it. [ ]: non-standard residue; d: D form. Orn = NCCC[C@H](N)C(=O)O

CC1(C)S[C@@H]2[C@H](NC(=O)Cc3ccccc3)C(=O)N2[C@H]1C(=O)O [PS, Penicillin Sodium, reference compound]: 13.5 to 24.3 µM

Data request: Provide GM MIC (range of Gram-negative and Gram-positive geometric means) value for the following molecule: O=C(N[C@H](CO)[C@H](O)c1ccc([N+](=O)[O-])cc1)C(Cl)Cl [CH, Chloramphenicol, reference compound]
Data returned: 18.4 to 22.6 µM

Data request: Provide GM MIC (range of Gram-negative and Gram-positive geometric means) value for the following molecule: CC[C@H](C)[C@@H]1NC(=O)[C@H](CCCNC(=N)N)NC(=O)[C@H]([C@@H](C)CC)NC(=O)[C@@H]2CCCN2C(=O)[C@H](CCCNC(=N)N)NC(=O)[C@H]([C@@H](C)CC)NC(=O)[C@H](CCCNC(=N)N)NC(=O)[C@H]([C@@H](C)CC)NC(=O)[C@H](CCCNC(=N)N)NC(=O)[C@H]([C@@H](C)CC)NC(=O)[C@@H]2CCCN2C(=O)[C@H](CCCNC(=N)N)NC(=O)[C@H]([C@@H](C)CC)NC(=O)[C@H](CCCNC(=N)N)NC1=O [OIR3] (cyclo(IRIRIRPIRIRIRP))
Data returned: 3.5 to 4.0 µM

Data request: Provide GM MIC (range of Gram-negative and Gram-positive geometric means) value for the following molecule: CC(C)C[C@@H]1NC(=O)[C@H](CCCN)NC(=O)[C@H](C(C)C)NC(=O)[C@@H]2CCCN2C(=O)[C@@H](Cc2ccccc2)NC(=O)[C@H](CC(C)C)NC(=O)[C@H](CCCN)NC(=O)[C@H](C(C)C)NC(=O)[C@@H]2CCCN2C(=O)[C@@H](Cc2ccccc2)NC1=O [GS, gramicidin S, reference compound] (cyclo(V[Orn]L[dF]PV[Orn]L[dF]P))
Data returned: 2 to 6.1 µM
